System: colon cancer cells (HCT116)
method_description: Cancer cell line growth inhibition, Sulforhodamine B assay, HCT116
Type: cell-based
condition_details: Homo sapiens, HCT-116, HCT116 colon cancer cell line; read-out: Cancer Cell Line GI50 Range HCT116
value_kind: GI50

Worked set:
smiles_str: O=C(NC1CC1)c1ccc(-c2cnn3c(NCC4CCOCC4)nc(Nc4ccccc4)nc23)cc1Cl
reading: > 500 nM
--
smiles_str: Cc1cc(-c2cnn3c(NCC4CCOCC4)cc(-c4ccnn4C)nc23)ccc1C(=O)NC1CC1
reading: ≤ 100 nM

// field: GI50; key: `O=C(NC1CC1)c1ccc(-c2cnn3c(NCC4CCOCC4)nc(Oc4ccccc4)nc23)cc1F` ; value = > 500 nM

// field: GI50; key: `Cc1cc(-c2cnn3c(NCC4CC4)cc(NC4CCOCC4)nc23)ccc1C(=O)NC1CC1` ; value = ≤ 100 nM

// field: GI50; key: `Cc1cc(-c2cnn3c(NCC4CCOCC4)cc(N[C@H]4CCCOC4)nc23)ccc1C(=O)NC1CC1` ; value = ≤ 100 nM

// field: GI50; key: `Cc1cc(-c2cnn3c(NCC4CCOCC4)cc(N[C@H]4CC[C@H](O)CC4)nc23)ccc1C(=O)NC1CC1` ; value = 100 to 500 nM

// field: GI50; key: `Cc1cc(-c2cnn3c(NCC4CCOCC4)cc(N[C@@H]4CCCOC4)nc23)ccc1C(=O)NC1CC1` ; value = 100 to 500 nM

====

target_of_assay: human TTK (Homo sapiens)
Construct: Active TTK was purchased from Invitrogen as an amino terminal GST fusion of full length human TTK; purchased Invitrogen
Sequence (P33981 whole entry, the tested form may be a part): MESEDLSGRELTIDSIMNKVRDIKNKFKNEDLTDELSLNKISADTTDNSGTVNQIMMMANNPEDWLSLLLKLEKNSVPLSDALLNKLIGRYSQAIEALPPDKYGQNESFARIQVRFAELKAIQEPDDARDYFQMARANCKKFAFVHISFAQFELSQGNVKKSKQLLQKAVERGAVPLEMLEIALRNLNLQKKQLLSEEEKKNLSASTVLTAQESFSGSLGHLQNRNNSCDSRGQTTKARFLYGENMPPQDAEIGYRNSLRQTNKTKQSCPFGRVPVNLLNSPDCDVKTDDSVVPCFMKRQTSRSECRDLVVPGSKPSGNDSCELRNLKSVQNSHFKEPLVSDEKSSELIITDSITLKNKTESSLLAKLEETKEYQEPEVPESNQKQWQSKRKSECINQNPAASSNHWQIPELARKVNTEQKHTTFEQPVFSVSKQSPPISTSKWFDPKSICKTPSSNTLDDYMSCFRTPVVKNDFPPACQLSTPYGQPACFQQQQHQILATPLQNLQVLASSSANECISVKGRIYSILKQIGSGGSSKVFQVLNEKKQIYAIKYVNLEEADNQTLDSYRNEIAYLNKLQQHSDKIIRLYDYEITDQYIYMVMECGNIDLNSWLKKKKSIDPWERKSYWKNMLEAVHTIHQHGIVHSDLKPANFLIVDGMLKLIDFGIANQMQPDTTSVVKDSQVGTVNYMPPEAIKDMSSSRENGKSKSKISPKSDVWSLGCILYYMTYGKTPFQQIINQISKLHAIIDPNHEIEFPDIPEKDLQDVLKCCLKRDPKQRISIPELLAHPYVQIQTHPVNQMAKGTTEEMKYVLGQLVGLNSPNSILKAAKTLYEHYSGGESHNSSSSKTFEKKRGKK
method_description: TTK inhibition assay (indirect ELISA)
Format: biochemical
condition_details: 16 μM ATP (Sigma cat# A7699); read-out: TTK IC50 Range (denoted with an asterisk)
pIC50: −log10 of the molar value.
value_kind: pIC50

Worked set:
compound: O=C(NC1CC1)c1ccc(-c2cnn3c(NCC4CCOCC4)nc(N4CCCCC4)nc23)cc1Cl [Example C16]
pIC50: > 7.00

compound: O=C(NC1CC1)c1ccc(-c2cnn3c(NCC4CCOCC4)nc(Nc4ccccc4)nc23)cc1Cl [Example C9]
pIC50: > 7.00

compound: O=C(NC1CC1)c1ccc(-c2cnn3c(NCC4CCOCC4)nc(Oc4ccccc4)nc23)cc1F [Example C7]
pIC50: > 7.00

compound: Cc1cc(-c2cnn3c(NCC4CCOCC4)nc(Oc4ccccc4F)nc23)ccc1C(=O)NC1CC1 [Example C20]
pIC50: > 7.00

compound: CC(=O)Nc1cccc(Oc2nc(NCC3CCOCC3)n3ncc(-c4ccc(C(=O)NC5CC5)c(C)c4)c3n2)c1 [Example C19]
pIC50: > 7.00

Proceed to the following item.
// field: pIC50; key: COCCNc1nc(OC2CCCC2)nc2c(-c3ccc(C(=O)NC4CC4)cc3)cnn12 [Example C8] ; value = > 7.00

====

System: breast cancer cells (MDA-MB-468)
method_description: Cancer cell line growth inhibition, Sulforhodamine B assay, MDA-MB-468
Format: cell-based
condition_details: Homo sapiens, MDA-MB-468, MDA-MB-468 breast cancer cell line; read-out: Cancer Cell Line GI50 Range MDA-MB-468
value_kind: GI50

Worked set:
molecule: Cc1cc(-c2cnn3c(NCC4CCOCC4)cc(N4CCC[C@H]4CO)nc23)ccc1C(=O)NC1CC1 [Example C161]
GI50: 0.1 to 0.5 µM

molecule: Cc1cc(-c2cnn3c(NCC4(F)CCN(C)CC4)cc(OC4CCCC4)nc23)ccc1C(=O)NC1CC1 [Example C174]
GI50: > 0.5 µM

molecule: Cc1cc(-c2cnn3c(NCC4(F)CCN(C)CC4)cc(Oc4cccnc4)nc23)ccc1C(=O)NC1CC1 [Example C147]
GI50: 0.1 to 0.5 µM

molecule: Cc1cc(-c2cnn3c(NCC4(O)CCOCC4)cc(Oc4cccnc4)nc23)ccc1C(=O)NC1CC1 [Example C98]
GI50: > 0.5 µM

molecule: Cc1cc(-c2cnn3c(NCC(C)C)cc(N[C@H](CO)C(C)C)nc23)ccc1C(=O)NC1CC1 [Example C158]
GI50: 0.1 to 0.5 µM

molecule: Cc1cc(-c2cnn3c(NCC4CCOCC4)cc(NC4(CO)CCCC4)nc23)ccc1C(=O)NC1CC1 [Example C45]
GI50: ≤ 0.1 µM

Proceed to the following item.
// field: GI50; key: Cc1cc(-c2cnn3c(NCCN4CCOCC4)nc(Oc4cccc(F)c4F)nc23)ccc1C(=O)NC1CC1 [Example C26] ; value = 0.1 to 0.5 µM
